Attribution: patent US20170081400A1

Target: T1, human TL1A extracellular domain with N-terminal HIS and FLAG tag (human, UniProt O95150 72-251)
T1 construct: the whole entry is named
T1 sequence: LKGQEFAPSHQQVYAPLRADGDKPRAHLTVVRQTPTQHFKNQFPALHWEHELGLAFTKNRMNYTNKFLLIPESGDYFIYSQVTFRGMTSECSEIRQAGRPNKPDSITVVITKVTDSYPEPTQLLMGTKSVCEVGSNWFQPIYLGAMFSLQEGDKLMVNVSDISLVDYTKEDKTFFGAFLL
Test: SPR Run 6, purified Ab captured on Protein A, TL1A 5 ug/mL, timepoint 44
quantity_kind: TL1A Binding Level (Early) (RU)
Answer with a number only, understood to be in RU.

[[record]]
binder = "320-465 (antibody, human IgG1, name in Kabat numbering, V domains shown, human IgG1, lambda) VH: QVQLVQSGAEVKKPGASVKVSCKASGYTFTSYDIQWVRQAPGQGLEWMGWLNPNSGNTGYAQKFQGRVTMTADRSTSTAYMELSSLRSEDTAVYYCAREVPETAAFEYWGQGTLVTVSS VL: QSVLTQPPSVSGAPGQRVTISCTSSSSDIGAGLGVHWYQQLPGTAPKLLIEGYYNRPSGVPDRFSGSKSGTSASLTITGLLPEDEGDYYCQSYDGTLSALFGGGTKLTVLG"
measured = 92


// moving on: another record for TL1A Binding Level (Early)
Which measured TL1A Binding Level (Early) value corresponds to 320-480 (antibody, human IgG1, name in Kabat numbering, V domains shown, human IgG1, lambda) VH: QVQLVQSGAEVKKPGASVKVSCKASGYTFTSYDINWVRQAPGQGLEWMGWLNPNSGNTGYYQKFQGRVTMTADRSTSTAYMELSSLRSEDTAVYYCAREVPETAAFEYWGQGTLVTVSS VL: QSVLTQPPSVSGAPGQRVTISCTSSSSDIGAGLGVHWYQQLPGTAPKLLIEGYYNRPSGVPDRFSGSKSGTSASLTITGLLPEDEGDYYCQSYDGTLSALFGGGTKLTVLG ?
79
